The reader will find reported GI50 values listed item by item below.
Test system: U-251
Experiment: NCI tumour cell line growth inhibition, 48 h
The source made the active and inactive calls. Rule as the data show it: active = GI50 up to about 1.1 µM and inactive = higher. Where a SMILES comes first, the peptide text is derived from it.

{"Compound": "CCOC(=O)C1(C(=O)OCC)C[C@H](C)[C@](C)(O)C1", "GI50": "> 100 µM (inactive)"}
{"Compound": "CNC(=S)N/N=C(\\C)c1ccc(OC)cc1O", "GI50": "> 73.5 µM (inactive)"}
{"Compound": "CC(=O)O[C@@H]1[C@H]2[C@@H](OC(=O)c3ccccc3)[C@@H](C)C[C@]2(O)[C@H](OC(C)=O)[C@@]2(C)[C@@H]3C[C@@](C)(OC(C)=O)C[C@@H](OC(C)=O)[C@@]3(OC(C)=O)C[C@@]12C", "GI50": "> 10 µM (inactive)"}
{"Compound": "CC(=O)O[C@H]1CC[C@@]2(C)C(=CC[C@@H]3[C@@H]2CC[C@](C)(c2nnc(C)o2)[C@H]3CC#N)C1", "GI50": "> 100 µM (inactive)"}
{"Compound": "O=C1NC(Nc2cccc(Cl)c2)=N/C1=C\\c1ccc(Cl)c(Cl)c1", "GI50": "4.02 µM (inactive)"}
{"Compound": "COC(=O)[C@H](Cc1ccccc1)NC(=O)N1CCCN(C(=O)N[C@@H](Cc2ccccc2)C(=O)OC)CCCN(C(=O)N[C@@H](Cc2ccccc2)C(=O)OC)CCC1", "GI50": "16.7 µM (inactive)"}
{"Compound": "C=C1c2ccccc2Oc2nc3nc(N)c(C#N)c(N)c3c(N)c21", "GI50": "30.2 µM (inactive)"}
{"Compound": "O=C(/C=C1\\Nc2ccccc2N=C1NC12CC3CC(CC(C3)C1)C2)c1ccc(Br)cc1", "GI50": "> 10 µM (inactive)"}
{"Compound": "Fc1ccccc1C1CC(C(c2ccccc2)c2ccccc2)=Nc2ccccc2S1 (stereo not given)", "GI50": "12.6 µM (inactive)"}
{"Compound": "COc1cc(C2C(C(=O)O)=C(COC(C)=O)Oc3cc4c(cc32)OCO4)cc(OC)c1OC (stereo not given)", "GI50": "> 100 µM (inactive)"}
{"Compound": "CC(=O)OCC1OC(n2c(N)c(C#N)c(-c3cccc(Cl)c3)c(C#N)c2=S)C(OC(C)=O)C(OC(C)=O)C1OC(C)=O (stereo not given)", "GI50": "22.8 µM (inactive)"}
{"Compound": "c1ccc(C(NC2=NCCO2)C2CC2)cc1 (stereo not given)", "GI50": "> 100 µM (inactive)"}
{"Compound": "CC12OC(=O)[C@@]3(O)CCC4C(C[C@H]5O[C@]56CC=CC(=O)[C@]46C)C45OC[C@H]6C(=O)O[C@@H]1C[C@@]6(C)[C@H](C4=O)C23O5 (stereo not given in full)", "GI50": "1.99 µM (inactive)"}
{"Compound": "CC(=O)c1cc(CC2Cc3cc4c(cc3C2=O)CCC4)cc2c1CCC2 (stereo not given)", "GI50": "33.7 µM (inactive)"}
{"Compound": "COc1cc2c(cc1O)[C@H](C)C(c1ccc(Cl)cc1)O2 (stereo not given in full)", "GI50": "19.1 µM (inactive)"}
{"Compound": "COc1cccc(C=O)c1C(=O)c1cc(O)ccc1O", "GI50": "> 100 µM (inactive)"}
{"Compound": "COc1ccc(/C=C2\\CCNC2=O)cc1", "GI50": "> 100 µM (inactive)"}
{"Compound": "O=C(O)CCN(CCCN(CCC(=O)O)CCC(=O)O)CCC(=O)O", "GI50": "> 100 µM (inactive)"}
{"Compound": "Cc1ccc([N+](=O)[O-])cc1S(=O)(=O)Nc1ccc(C2=NN(S(=O)(=O)c3cc([N+](=O)[O-])ccc3C)C(c3cccs3)C2)cc1 (stereo not given)", "GI50": "30.1 µM (inactive)"}
{"Compound": "CN/N=C(\\C)c1c(O)cc(C)oc1=O", "GI50": "> 100 µM (inactive)"}
{"Compound": "C=C1c2c(cc3c(c2O)c(=O)c2ccccc2n3C)OC1(C)C", "GI50": "50.1 µM (inactive)"}
{"Compound": "C=C(C)C(=O)[C@@]12C(=O)[C@@H](C)CC[C@H]1[C@H](C)C[C@@H]2C=C(C)C", "GI50": "23.6 µM (inactive)"}
{"Compound": "CCOC(=O)c1ccc(C(=O)/C(C(C)=O)=C2\\CCCN2C)n1C", "GI50": "86.5 µM (inactive)"}
{"Compound": "O=c1cc(-c2ccccc2)oc2ccc(Oc3nnnn3-c3ccccc3)cc12", "GI50": "35 µM (inactive)"}
{"Compound": "COc1ccc(Cn2c(=O)c(OS(=O)(=O)C(F)(F)F)c(C)c3cc4ccccc4cc32)cc1", "GI50": "> 100 µM (inactive)"}
{"Compound": "C[Si](C)(C)CN1C(=O)c2ccccc2C1(O)c1ccccc1 (stereo not given)", "GI50": "> 100 µM (inactive)"}
{"Compound": "CCOC(=O)c1cc(/C=C/C(C)=C/C(=O)OC)n(C)c1C", "GI50": "> 100 µM (inactive)"}
{"Compound": "CC(C)=CCN1CC(C)C(=O)Nc2ccccc21 (stereo not given)", "GI50": "> 100 µM (inactive)"}
{"Compound": "Cn1c(=O)cc(Nc2ccc(N)cc2)[nH]c1=O", "GI50": "> 100 µM (inactive)"}
{"Compound": "O=C1Oc2ccccc2C(=O)/C1=C\\Nc1nc(-c2ccccc2)cs1", "GI50": "11.8 µM (inactive)"}
{"Compound": "N#C/C(N)=C(C#N)/N=C/NCc1ccccc1", "GI50": "> 100 µM (inactive)"}
{"Compound": "Cn1c(CCC2(C)Cc3ccccc3C(=O)O2)cc2ccccc2c1=O (stereo not given)", "GI50": "45.5 µM (inactive)"}
{"Compound": "CCCCCCCCCCCCNC(=S)OCCCC", "GI50": "63.7 µM (inactive)"}
{"Compound": "CNC(=O)CNC(=O)C(NC(=O)CNC(=O)C1CCCN1C(=O)C(C)NC(=O)C(NC(C)=O)C(C)C)C(C)C (stereo not given) (Ac-VAPGVG-NHMe; configuration not given here)", "GI50": "> 100 µM (inactive)"}
{"Compound": "CC1(O)OC(=O)C2=C1CCC1C2CCC2(C)C(O)CCC12 (stereo not given)", "GI50": "> 100 µM (inactive)"}
{"Compound": "Nc1nc2c(=O)c3ccccc3sc2s1", "GI50": "45.1 µM (inactive)"}
{"Compound": "C=C=C[P+](c1ccccc1)(c1ccccc1)c1ccccc1", "GI50": "3.56 µM (inactive)"}
{"Compound": "Cc1cc(C)c(S(=O)(=O)N(CCCCN)OCCCN)c(C)c1", "GI50": "15.4 µM (inactive)"}
{"Compound": "O=C(O)C(C(=O)C(=O)C(C(=O)O)c1ccc(Cl)cc1)c1ccc(Cl)cc1 (stereo not given)", "GI50": "3.22 µM (inactive)"}
{"Compound": "CCOC(=O)[C@H]1Nc2ccccc2C2c3ccccc3CC21 (stereo not given in full)", "GI50": "> 100 µM (inactive)"}
